assay_context: bacteroides intestinalis, 12 h, 2 µM
Description: The drug is tested on Bacteroides intestinalis strain: DSM17393 for biotransformation. The drug concentrations were measured before and after a 12-h incubation by liquid-chromatography-coupled mass spectrometry (LC–MS)
measured_parameter: Bacterial Biotransformation

{"columns": ["molecule", "measured_result"],
 "data": [
  ["CN1CCN(C2=Nc3ccccc3Oc3ccc(Cl)cc32)CC1.O=C(O)CCC(=O)O [LOXAPINE SUCCINATE]", "Compound NOT metabolized"],
  ["CCOC(=O)C1=C(C)NC(C)=C(C(=O)OC)C1c1cccc([N+](=O)[O-])c1 (stereo not drawn)", "Compound metabolized"],
  ["COc1ccc2cc([C@H](C)C(=O)O)ccc2c1", "Compound NOT metabolized"],
  ["NC(CO)(CO)CO.O=C(c1ccccc1)c1ccc2n1CCC2C(=O)O (stereo not drawn)", "Compound NOT metabolized"],
  ["O=c1n(CCCN2CCN(c3cccc(Cl)c3)CC2)nc2ccccn12", "Compound NOT metabolized"],
  ["CCN(CC)CCNC(C(=O)OCCC(C)C)c1ccccc1.Cl.Cl (stereo not drawn)", "Compound NOT metabolized"],
  ["CN1[C@@H]2CC[C@H]1C[C@@H](OC(=O)c1c[nH]c3ccccc13)C2", "Compound NOT metabolized"],
  ["OC(c1cc(C(F)(F)F)nc2c(C(F)(F)F)cccc12)C1CCCCN1 (stereo not drawn)", "Compound NOT metabolized"],
  ["CC(C)(C)N.CCC[C@H](N[C@@H](C)C(=O)N1[C@H](C(=O)O)C[C@@H]2CCCC[C@@H]21)C(=O)OCC", "Compound NOT metabolized"],
  ["COc1c2occc2cc2ccc(=O)oc12", "Compound metabolized"],
  ["CN(C)CCOC(C)(c1ccccc1)c1ccccn1.O=C(O)CCC(=O)O (stereo not drawn) [DOXYLAMINE SUCCINATE]", "Compound NOT metabolized"],
  ["CN(C)CCC=C1c2ccccc2COc2ccccc21 [DOXEPIN]", "Compound NOT metabolized"],
  ["CC(=O)O[C@]1(C(C)=O)CC[C@H]2[C@@H]3C=C(Cl)C4=CC(=O)[C@@H]5C[C@@H]5[C@]4(C)[C@H]3CC[C@@]21C [CYPROTERONE ACETATE]", "Compound metabolized"],
  ["CC(Oc1c(Cl)cccc1Cl)C1=NCCN1 (stereo not drawn)", "Compound metabolized"],
  ["CC(C)(C(=O)O)c1ccc(C(O)CCCN2CCC(C(O)(c3ccccc3)c3ccccc3)CC2)cc1 (stereo not drawn) [FEXOFENADINE]", "Compound NOT metabolized"],
  ["CNC(=C[N+](=O)[O-])NCCSCc1ccc(CN(C)C)o1", "Compound NOT metabolized"],
  ["CCOC(=O)[C@H](CCc1ccccc1)N[C@@H](C)C(=O)N1[C@H](C(=O)O)C[C@H]2CCCC[C@@H]21", "Compound NOT metabolized"],
  ["O=P1(N(CCCl)CCCl)NCCCO1 (stereo not drawn) [CYCLOPHOSPHAMIDE ANHYDROUS]", "Compound NOT metabolized"]
]}

* * *

protocol_notes: The drug is tested on Odoribacter splanchnicus strain: fecal isolate for biotransformation. The drug concentrations were measured before and after a 12-h incubation by liquid-chromatography-coupled mass spectrometry (LC–MS)
assay_context: 2 µM

{"columns": ["compound", "Bacterial Biotransformation"],
 "data": [
  ["CCOc1ccc(NC(C)=O)cc1", "Compound NOT metabolized"],
  ["O=C(CCCN1CCC(O)(c2ccc(Cl)cc2)CC1)c1ccc(F)cc1", "Compound NOT metabolized"],
  ["N#Cc1ccc(C(c2ccc(C#N)cc2)n2cncn2)cc1", "Compound NOT metabolized"],
  ["CC(C)(C(=O)O)c1ccc(C(O)CCCN2CCC(C(O)(c3ccccc3)c3ccccc3)CC2)cc1 (stereo not given) [FEXOFENADINE]", "Compound NOT metabolized"],
  ["CN(C)CCOC(C)(c1ccccc1)c1ccccn1.O=C(O)CCC(=O)O (stereo not given) [DOXYLAMINE SUCCINATE]", "Compound NOT metabolized"],
  ["CCCCCOC(=O)Nc1nc(=O)n([C@@H]2O[C@H](C)[C@@H](O)[C@H]2O)cc1F", "Compound metabolized"],
  ["COc1ccc2[nH]c([S+]([O-])Cc3ncc(C)c(OC)c3C)nc2n1 (stereo not given)", "Compound metabolized"],
  ["CN1[C@@H]2CC[C@H]1C[C@@H](OC(=O)C(CO)c1ccccc1)C2 (stereo not given in full)", "Compound NOT metabolized"],
  ["CN1C[C@H](C(=O)N[C@]2(C)O[C@@]3(O)[C@@H]4CCCN4C(=O)[C@H](Cc4ccccc4)N3C2=O)C=C2c3cccc4[nH]cc(c34)C[C@H]21.CN1C[C@H](C(=O)N[C@]2(C)O[C@@]3(O)[C@@H]4CCCN4C(=O)[C@H](Cc4ccccc4)N3C2=O)C=C2c3cccc4[nH]cc(c34)C[C@H]21.O=C(O)C(O)C(O)C(=O)O [ERGOTAMINE TARTRATE]", "Compound metabolized"],
  ["CCc1cccc2c3c([nH]c12)C(CC)(CC(=O)O)OCC3 (stereo not given)", "Compound metabolized"],
  ["COc1cc2c(c(OC)c1OC)-c1ccc(OC)c(=O)cc1[C@@H](NC(C)=O)CC2", "Compound metabolized"],
  ["Cc1ccccc1N1C(=O)c2cc(S(N)(=O)=O)c(Cl)cc2NC1C (stereo not given)", "Compound NOT metabolized"],
  ["CC[C@@H](CO)NC(=O)[C@@H]1C=C2c3cccc4c3c(cn4C)C[C@H]2N(C)C1.O=C(O)/C=C\\C(=O)O [METHYSERGIDE MALEATE]", "Compound metabolized"],
  ["CC[C@H](C)C(=O)O[C@H]1CCC=C2C=C[C@H](C)[C@H](CC[C@@H]3C[C@@H](O)CC(=O)O3)[C@H]21", "Compound metabolized"],
  ["Cc1ccc(/C(=C\\CN2CCCC2)c2ccccn2)cc1", "Compound NOT metabolized"],
  ["CCOc1ccccc1OCCN[C@H](C)Cc1ccc(OC)c(S(N)(=O)=O)c1.Cl [TAMSULOSIN HYDROCHLORIDE]", "Compound NOT metabolized"],
  ["O=c1[nH]c2ccccc2n1CCCN1CCC(n2c(=O)[nH]c3cc(Cl)ccc32)CC1", "Compound NOT metabolized"],
  ["CCCc1nn(C)c2c(=O)[nH]c(-c3cc(S(=O)(=O)N4CCN(C)CC4)ccc3OCC)nc12.O=C(O)CC(O)(CC(=O)O)C(=O)O [SILDENAFIL CITRATE]", "Compound metabolized"],
  ["CCCCC1=NC2(CCCC2)C(=O)N1Cc1ccc(-c2ccccc2-c2nnn[nH]2)cc1", "Compound metabolized"],
  ["CN1C(=O)CCS(=O)(=O)C1c1ccc(Cl)cc1 (stereo not given)", "Compound NOT metabolized"],
  ["CC(NC(C)(C)C)C(=O)c1cccc(Cl)c1 (stereo not given)", "Compound metabolized"],
  ["CC(=O)O[C@H]1C(=O)[C@@]2(C)[C@H]([C@H](OC(=O)c3ccccc3)[C@]3(O)C[C@H](OC(=O)[C@H](O)[C@@H](NC(=O)c4ccccc4)c4ccccc4)C(C)=C1C3(C)C)[C@]1(OC(C)=O)CO[C@@H]1C[C@@H]2O", "Compound metabolized"],
  ["C=CC[C@@H]1/C=C(\\C)C[C@H](C)C[C@H](OC)[C@H]2O[C@@](O)(C(=O)C(=O)N3CCCC[C@H]3C(=O)O[C@H](/C(C)=C/[C@@H]3CC[C@@H](O)[C@H](OC)C3)[C@H](C)[C@@H](O)CC1=O)[C@H](C)C[C@@H]2OC.O", "Compound metabolized"],
  ["CC(=O)Nc1ccc(OC(C)=O)cc1 [DIACETAMATE]", "Compound metabolized"],
  ["COc1cc2nc(N3CCN(C(=O)c4ccco4)CC3)nc(N)c2cc1OC", "Compound NOT metabolized"],
  ["CC(=O)OCC(CCn1cnc2cnc(N)nc21)COC(C)=O", "Compound metabolized"],
  ["CCC1(c2ccc(N)cc2)CCC(=O)NC1=O (stereo not given) [AMINOGLUTETHIMIDE]", "Compound NOT metabolized"],
  ["COc1ccc(/C=C/C(=O)Nc2ccccc2C(=O)O)cc1OC", "Compound NOT metabolized"],
  ["CCC(=O)NCC[C@@H]1CCc2ccc3c(c21)CCO3", "Compound metabolized"],
  ["CC(C)c1c(CN(C)C(C)Cc2ccccc2)n(C)n(-c2ccccc2)c1=O (stereo not given)", "Compound metabolized"]
]}

* * *

protocol_notes: The drug is tested on Bifidobacterium longum subsp. Infantis strain: CCUG52486 for biotransformation. The drug concentrations were measured before and after a 12-h incubation by liquid-chromatography-coupled mass spectrometry (LC–MS)
assay_context: 2 µM
measured_parameter: Bacterial Biotransformation

{"columns": ["molecule", "measured_result"],
 "data": [
  ["Cc1ccccc1N1C(=O)c2cc(S(N)(=O)=O)c(Cl)cc2NC1C (centres undefined)", "Compound NOT metabolized"],
  ["Fc1ccc([C@@H]2CCNC[C@H]2COc2ccc3c(c2)OCO3)cc1", "Compound NOT metabolized"],
  ["O=C(O)COCCN1CCN(C(c2ccccc2)c2ccc(Cl)cc2)CC1 (centres undefined)", "Compound NOT metabolized"],
  ["CCOc1ccccc1OCCN[C@H](C)Cc1ccc(OC)c(S(N)(=O)=O)c1.Cl [TAMSULOSIN HYDROCHLORIDE]", "Compound NOT metabolized"],
  ["CC(C)NCC(O)c1ccc(NS(C)(=O)=O)cc1 (centres undefined)", "Compound NOT metabolized"],
  ["CCCCCOC(=O)Nc1nc(=O)n([C@@H]2O[C@H](C)[C@@H](O)[C@H]2O)cc1F", "Compound metabolized"],
  ["O=C(O)CCC(=O)O.O=C(O[C@H]1CN2CCC1CC2)N1CCc2ccccc2[C@@H]1c1ccccc1 [SOLIFENACIN SUCCINATE]", "Compound NOT metabolized"],
  ["CNC(=C[N+](=O)[O-])NCCSCc1csc(CN(C)C)n1", "Compound metabolized"],
  ["c1ccc([C@H]2CN3CCSC3=N2)cc1", "Compound NOT metabolized"]
]}
